# experimentSummary: Human HepG2 cell viability assay in 384 well format
# Type: toxicity, cell-based
# Parameters: dose 125 nL, time 70.5 hour; concentration not given beside the values
# measurementParameters: HepG2 cells, read-out: Inhibition
readoutType: cytotoxicity at 70.5 h (%)
Write the answer as a number in %, unit excluded.

Q) May I ask what cytotoxicity at 70.5 h has been recorded for CN(Cc1noc2c1CCCC2)C(=O)Cn1c(=O)cnc2ccccc21 ?
A) -12.8

Q) Note, next up: O=C(c1ccc2c(c1)COC2)N1CCC(Nc2ccccc2)CC1
A) 1.02

Q) Note, next up: Cc1ncc(CNC(=O)CCc2cccs2)c(C2CCCN2C)n1 (centres undefined)
A) -4.28

Q) Note, next up: CCCc1nc(CN(CC)Cc2ccoc2)no1
A) -7.87

Q) Note, next up: CS(=O)(=O)c1ccc(OCCNCc2cccc(F)c2)cc1
A) -2.08

Q) Note, next up: C1CCN(CCN2CCCCC2C2OCCO2)CC1 (centres undefined)
A) 3.91

Q) Note, next up: CC(=O)N1CCCn2nc(CNC(=O)N3CCCCC3)cc2C1
A) 19.2

Q) Note, next up: O=C(CN1CCC(c2ccnn2CCO)CC1)NCC1CC1
A) 10.7

Q) Note, next up: Cc1cnn(C2CN(c3nc(-c4ccncc4)nc4c3CCC4)C2)c1
A) -6.05

* * *

Hi there, I'd appreciate the recorded cytotoxicity at 70.5 h for every entry that follows.
# experimentSummary: Human HepG2 cell viability assay in 384 well format
# Assay type: toxicity, cell-based
# Set-up: dose 125 nL, time 70.5 hour; concentration not given beside the values
# measurementParameters: HepG2 cells, read-out: Inhibition
Reply with the number, then its unit.

Q) May I ask what cytotoxicity at 70.5 h has been recorded for Cc1nc(C2(NCC(=O)NC(=O)NCc3cccs3)CCCCC2)no1 ?
A) -12.5%

Q) Note, next up: CNC(=O)c1cccc(CN2CCC(N(C)Cc3nnc(C)o3)C2)c1 (stereo unspecified)
A) -6.28%

Q) Note, next up: Cc1nn(C)cc1-c1cc(C(F)F)nc(NC2CCCCC2)n1
A) -11.8%

Q) Note, next up: CCCn1cc(C(=O)NC(CC(=O)O)c2ccco2)c(C)n1 (stereo unspecified)
A) -8.82%

Q) Note, next up: COCCN1CCN(CCCS(=O)(=O)N(C)C)CC1C (stereo unspecified)
A) -2.19%

Q) Note, next up: CNc1cc(C2CN(Cc3coc(C)n3)CCO2)nc(C)n1 (stereo unspecified)
A) -8.75%

Q) Note, next up: CN(C)c1ncnc2c1CCN(S(=O)(=O)c1cccc(Cl)c1Cl)C2
A) -4.66%

Q) Note, next up: O=C(NC1CCCN(c2ccccn2)C1)C1(c2ccccc2F)CC1 (stereo unspecified)
A) 15.1%

Q) Note, next up: COCCCC1(C(=O)O)CCCN(Cc2ccccc2C)C1 (stereo unspecified)
A) -4.89%

Q) Note, next up: CCOC(=O)NC(CNC(=O)c1ncccn1)CC(C)C (stereo unspecified)
A) -7.23%

Q) Note, next up: Cn1cc(C[C@H]2[C@H](O)CCN2C(=O)C2CCCC2)cn1
A) -2.64%

Q) Note, next up: O=c1c(-c2ccnc(NC3CCCCC3)n2)cnc2sc(Cl)cn12
A) -5.61%

Q) Note, next up: Cc1ccc(N2C[C@@H](CN3CCOCC3)[C@@H](CO)C2)nn1
A) -16.8%

Q) Note, next up: CCS(=O)(=O)NC[C@]12COC[C@H]1CN(Cc1cccnc1OC)C2
A) -19.9%

Q) Note, next up: NC(=O)C1CCN(C(=O)CCn2ccc3cc(Br)ccc32)CC1
A) -1.61%

Q) Note, next up: O=C(NCCNc1ncccn1)C1CCN(C(=O)NC2CC2)CC1
A) -4.22%

Q) Note, next up: COCCOCC(=O)N1CCC(O)(c2ccc3nc(C)ccc3c2)CC1
A) -5.95%

Q) Note, next up: O=C(c1cccn1Cc1cccs1)N1CCN(C(=O)C2CC2)CC1
A) -20.1%

Q) Note, next up: O=c1n(CCSCc2ccccc2Br)nc2ccccn12
A) 4.82%

Q) Note, next up: CSCC(C)(O)CNc1cccc(F)c1C(C)=O (stereo unspecified)
A) -5.74%

Q) Note, next up: O=S(=O)(c1ccc(-c2nc3c([nH]2)CCNC3)cc1)N1CCCC1
A) -11.8%

Q) Note, next up: CCn1cnnc1CNC(=O)N1CCN(c2ccccc2Cl)CC1
A) -3.38%

Q) Note, next up: COCC1CCN(C(=O)c2cn(Cc3cccc(C(F)(F)F)c3)nn2)C1 (stereo unspecified)
A) -12.5%

Q) Note, next up: CCn1c(N)nc2cc(C(=O)NCc3ccccc3Cl)cnc21
A) 0.502%

Q) Note, next up: O=C1CCC2(CCOC2)CN1Cc1nc2ccc(Cl)cc2[nH]1 (stereo unspecified)
A) -1.72%

Q) Note, next up: OCCc1ccccc1-n1ccnc1-c1cn(C2CCNCC2)nn1
A) 27.2%

Q) Note, next up: CN(C)C(=O)CN1C(=O)CO[C@@H]2CN(c3ccccn3)C[C@H]21
A) -7.96%

Q) Note, next up: O=C(CCCNCc1ccc(Cl)c2cccnc12)NC1CC1
A) -1.79%

Q) Note, next up: CCCNC(=O)Nc1ccn(CCCOC)n1
A) 9.71%

Q) Note, next up: Cc1nn(C)cc1Cn1c(=O)ccc2ccccc21
A) -3.85%

Q) Note, next up: CN1CCN(C(=O)c2cccn2C)Cc2cccnc21
A) -4.65%

Q) Note, next up: Fc1cccc(Nc2nc(N3CCCC3)nc3c2CNCC3)c1
A) 80.4%

Q) Note, next up: CC(C)c1noc(C[S+]([O-])CC(=O)Nc2cc(F)ccc2F)n1 (stereo unspecified)
A) -3.52%

Q) Note, next up: O=C(NCCn1ccnc1)C1(c2ccc3c(c2)OCCO3)CCCC1
A) -12%

Q) Note, next up: O=C(NC1CCCCC1)N1CCn2c(nnc2C2CCCN2)C1 (stereo unspecified)
A) -12.5%

Q) Note, next up: CC(C)CNC(=O)c1ccc(NC(=O)NC(C)c2ccccn2)cc1 (stereo unspecified)
A) -5.93%

* * *

# experimentSummary: Human HepG2 cell viability assay in 384 well format
# Format: toxicity, cell-based
# Set-up: dose 125 nL, time 70.5 hour; concentration not given beside the values
# measurementParameters: HepG2 cells, read-out: Inhibition
Hi there, I'd appreciate the recorded cytotoxicity at 70.5 h for every entry that follows.
Write the answer as a number in %, unit excluded.

Q) May I ask what cytotoxicity at 70.5 h has been recorded for Cc1nn(C)c(C)c1NC(=O)CN1CCN(c2nccs2)C(C)C1 (centres undefined) ?
A) -6.35

Q) Note, next up: O=C(c1ccc2c(c1)CCCC2)N1CCCC(n2cncn2)C1 (centres undefined)
A) -4.56

Q) Note, next up: CCc1nc2n(n1)CC(Nc1nc(C)cc(N(C)C)n1)CC2 (centres undefined)
A) -6.31

Q) Note, next up: CSc1ccc(C2SCC(=O)Nc3c2c(=O)[nH]n3C2CCOCC2)cc1 (centres undefined)
A) -23.9

* * *

# experimentSummary: Human HepG2 cell viability assay in 384 well format
# Format: toxicity, cell-based
# Set-up: dose 125 nL, time 70.5 hour; concentration not given beside the values
# measurementParameters: HepG2 cells, read-out: Inhibition
Hi there, I'd appreciate the recorded cytotoxicity at 70.5 h for every entry that follows.
Write the answer as a number in %, unit excluded.

Q) May I ask what cytotoxicity at 70.5 h has been recorded for Cn1cc(CN2CCc3c(c(COCC#N)nn3C)C2)cn1 ?
A) -13.6

Q) Note, next up: CCN(CC)c1nc2sc(C(=O)NC(C)(C)C(=O)OC)cc2s1
A) 0.56

Q) Note, next up: CC(=O)NCC(=O)N1CC[C@H](OCC2CC2)[C@@H]1Cc1cccnc1
A) -8.28

Q) Note, next up: CC(C)c1nnc(CN2CCCC2Cn2cncn2)o1 (centres undefined)
A) -11.1

Q) Note, next up: c1cncc(COCC2CN(Cc3ccsc3)Cc3ccnn3C2)c1 (centres undefined)
A) -4.42

Q) Note, next up: O=C(O)c1c(Cl)ncn1-c1cccc2ccccc12
A) -4.51

Q) Note, next up: Cc1nc(NCc2nnc(C)n2C)c2c(CC(C)C)csc2n1
A) 0.805

Q) Note, next up: O=C(c1ccccn1)N1CCC(c2nc(O)cc(-c3ccncc3)n2)C1 (centres undefined)
A) -5.15

Q) Note, next up: CCc1nnc2n1CCN(Cc1nc3c(F)cccc3[nH]1)C2
A) 11.8

Q) Note, next up: CC(O)CN1CCC(CNCc2ccccc2Br)CC1 (centres undefined)
A) -1.26

Q) Note, next up: Cc1ccc2cc(C3(O)CCN(C(=O)[C@@H]4CCCCN4)CC3)ccc2n1
A) -2.74

Q) Note, next up: O=C(NC[C@]12COC[C@H]1CN(Cc1ccncc1)C2)c1ccco1
A) -10.9

Q) Note, next up: O=C(CCCNC(=O)C1CCCO1)Nc1ccc(Cl)cc1 (centres undefined)
A) 17.1

Q) Note, next up: CCC(NCCn1cc(C)cn1)C(=O)Nc1cc(C)on1 (centres undefined)
A) 10.8

Q) Note, next up: CC1CCCCN1C(=O)CCc1nnc(-c2ccccc2)o1 (centres undefined)
A) -1.68

Q) Note, next up: COc1ncc(-c2nccn2-c2ccccc2CN2CCOCC2)cn1
A) -7.32

Q) Note, next up: CS(=O)(=O)N1CCC(C(=O)NC(Cc2ccsc2)c2nccs2)CC1 (centres undefined)
A) -20.6

Q) Note, next up: Cc1ccc(-c2nnc(C3CCCN3S(=O)(=O)c3cnn(C)c3C)o2)s1 (centres undefined)
A) 2.03

Q) Note, next up: CCN(Cc1nc2c(cnn2C)c(=O)[nH]1)Cc1ccccc1Cl
A) 0.498

Q) Note, next up: COCC1CN(C(=O)Cc2ccccn2)Cc2ncnn2C1 (centres undefined)
A) 16.8

Q) Note, next up: Nc1nc(CCNc2ncnc3c2CCN(C(=O)C2CC2)C3)cs1
A) -11.6

Q) Note, next up: CC(c1ccncn1)N(C)Cc1cc(O)c2cc(F)ccc2n1 (centres undefined)
A) -8.14

Q) Note, next up: COCC(=O)NC1CC2(CCN(CCF)CC2)Oc2ccccc21 (centres undefined)
A) -10.9

Q) Note, next up: O=C(CCOc1ccccc1F)N1CCC(O)CC1
A) -9.54

Q) Note, next up: CCc1nc2n(n1)CCCC2Nc1nc(C2CC2)ns1 (centres undefined)
A) -8.97

Q) Note, next up: COCCNC(=O)Cc1cnc(-n2cccc2)s1
A) -22.5

Q) Note, next up: Cc1ccc(CC(=O)N2Cc3nccn3CC(CN(C)C)C2)cc1 (centres undefined)
A) -13.3

Q) Note, next up: COC(=O)Cn1cccc(S(=O)(=O)N2CCC(C)CC2)c1=O
A) 41

Q) Note, next up: CS(=O)(=O)N1CCC(C(=O)N2CCC3(CC2)OCCCO3)CC1
A) 54.6

Q) Note, next up: COC(=O)c1sc2cccc(F)c2c1CNC(=O)C1CCOC1 (centres undefined)
A) -2.33

Q) Note, next up: CC(O)(CNc1ccccn1)c1ccccc1 (centres undefined)
A) 19.5

Q) Note, next up: Cc1ccc(CNC(c2ccccc2)c2nccn2C)cc1C (centres undefined)
A) -7.63

Q) Note, next up: CCc1cc(N(C)Cc2ccno2)n2nc(C)c(C)c2n1
A) -2.75

Q) Note, next up: O=C(Nc1cccc(C(=O)OCC2CCCN2)c1)c1ccoc1 (centres undefined)
A) 5.78

Q) Note, next up: Nc1c(N2CCCCC2)ncnc1N1CCOCC1
A) 1.26

Q) Note, next up: CCNC(=O)CCC(=O)NC1(c2cccc(C(F)(F)F)c2)CCC1
A) 16.4

Q) Note, next up: CN(Cc1cccnc1)C[C@@H]1OC[C@H]2CN(Cc3ccco3)CC[C@H]21
A) -2.49

Q) Note, next up: O=C1CC(c2ncc(-c3ccc4c(c3)OCCO4)[nH]2)CN1C1CC1 (centres undefined)
A) -7.8

Q) Note, next up: CN(CCc1ccccn1)C(=O)c1cccs1
A) -2.46

From: ChEMBL document CHEMBL3507680
